STUDY_SYSTEM: hDHFR (Homo sapiens, UniProt P00374)
Format: biochemical
CONDITION_DETAILS: Table 18; pIC50 = -log10 IC50; at least three replicates; read-out: hDHFR pIC50-DHFR primary assay (converted)
Listing: IC50 of selected compounds

# SMILES, STUDY_SYSTEM, IC50 / nM
measured = [
    ("Nc1ncc(N2CCN(c3cccc(-c4cnc(Cl)nc4)c3)CC2)c(N)n1", "hDHFR (Homo sapiens, UniProt P00374)", 1320),
    ("COc1ncc(-c2cccc(N3CCN(c4cnc(N)nc4N)CC3)c2)cn1", "hDHFR (Homo sapiens, UniProt P00374)", 891),
    ("Nc1ncc(N2CCN(c3cccc(-c4cncnc4)c3)CC2)c(N)n1", "hDHFR (Homo sapiens, UniProt P00374)", 3090),
    ("Nc1ncc(N2CCN(c3cccc(-c4cnc(C5CC5)nc4)c3)CC2)c(N)n1", "hDHFR (Homo sapiens, UniProt P00374)", 832),
    ("CCc1ncc(-c2cccc(N3CCN(c4cnc(N)nc4N)CC3)c2)cn1", "hDHFR (Homo sapiens, UniProt P00374)", 1410),
]

* * *

STUDY_SYSTEM: UniProtKB P00374
Sequence (P00374 1-187): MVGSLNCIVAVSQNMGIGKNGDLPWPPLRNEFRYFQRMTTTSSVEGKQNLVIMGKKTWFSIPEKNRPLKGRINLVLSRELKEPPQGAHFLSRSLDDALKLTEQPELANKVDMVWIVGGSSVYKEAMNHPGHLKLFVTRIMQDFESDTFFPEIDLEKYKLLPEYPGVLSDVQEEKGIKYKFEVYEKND
Format: biochemical
CONDITION_DETAILS: Table 17; pIC50 = -log10 IC50; at least three replicates; read-out: hDHFR pIC50-DHFR primary assay (converted)
Rule: IC50 below 3000 nM gives yes (1). Equal to or above 3000 nM gives no (0).

# SMILES, LABEL_VALUE
measured = [
    ("Nc1ncc(N2CCN(c3ccc(F)cc3)CC2)c(N)n1", "no (0)"),
    ("COc1ccc(N2CCN(c3cnc(N)nc3N)CC2)cn1", "yes (1)"),
    ("Nc1ncc(N2CCN(c3ccc(Cl)cn3)CC2)c(N)n1", "yes (1)"),
    ("Nc1ncc(N2CCN(c3ccccc3C3CCOCC3)CC2)c(N)n1", "no (0)"),
    ("N#Cc1ncc(-c2cccc(N3CCN(c4cnc(N)nc4N)CC3)c2)cn1", "yes (1)"),
    ("Nc1ncc(N2CCN(c3ccnc(Cl)c3)CC2)c(N)n1", "yes (1)"),
    ("Nc1ncc(N2CCN(c3ccc(F)nc3)CC2)c(N)n1", "no (0)"),
    ("N#Cc1ccc(N2CCN(c3cnc(N)nc3N)CC2)cn1", "yes (1)"),
    ("Nc1ncc(C2CCN(c3cnc(C(F)(F)F)nc3)CC2)c(N)n1", "no (0)"),
]

* * *

STUDY_SYSTEM: T. cruzi DHFR (tcDHFR) (Trypanosoma cruzi)
Sequence (Q27793 whole entry): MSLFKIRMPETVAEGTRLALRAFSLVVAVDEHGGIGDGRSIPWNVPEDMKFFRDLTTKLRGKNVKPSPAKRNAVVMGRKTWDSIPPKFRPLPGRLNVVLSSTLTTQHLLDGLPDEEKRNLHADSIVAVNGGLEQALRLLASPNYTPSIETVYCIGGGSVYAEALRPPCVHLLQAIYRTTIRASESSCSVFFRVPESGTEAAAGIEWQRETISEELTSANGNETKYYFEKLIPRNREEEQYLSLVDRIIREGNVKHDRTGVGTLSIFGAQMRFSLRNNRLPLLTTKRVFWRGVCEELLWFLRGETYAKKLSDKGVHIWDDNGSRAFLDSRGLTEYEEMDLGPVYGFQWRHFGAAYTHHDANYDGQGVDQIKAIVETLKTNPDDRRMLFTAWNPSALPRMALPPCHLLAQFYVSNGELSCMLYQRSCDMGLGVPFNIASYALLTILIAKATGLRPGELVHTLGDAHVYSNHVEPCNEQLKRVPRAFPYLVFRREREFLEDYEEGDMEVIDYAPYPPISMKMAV
ASSAY_PROCEDURE: biochemical
CONDITION_DETAILS: Table 17; hDHFR IC50/tcDHFR IC50
PROPERTY: Average DHFR selectivity (h/tc)

# SMILES, OBSERVED_VALUE
data = [
    ("Nc1ncc(N2CCN(c3ccc(Cl)cn3)CC2)c(N)n1", 122.69),
    ("COc1ncc(-c2ccccc2N2CCN(c3cnc(N)nc3N)CC2)cn1", 27.56),
    ("Nc1ncc(N2CCN(c3ccc(C4CCOCC4)cc3)CC2)c(N)n1", 30.425),
    ("COc1ccc(N2CCN(c3cnc(N)nc3N)CC2)cn1", 209.762),
    ("Nc1ncc(N2CCN(c3ccccc3C3CCOCC3)CC2)c(N)n1", 17.745),
    ("Nc1ncc(N2CCN(c3cccc(OC4CCOCC4)c3)CC2)c(N)n1", 31.54),
    ("Nc1ncc(N2CCN(c3cc(Cl)ccc3F)CC2)c(N)n1", 52.69),
    ("Nc1ncc(N2CCN(c3ccc(F)c(Cl)c3)CC2)c(N)n1", 41.735),
    ("Nc1ncc(N2CCN(c3ccc(Cl)nc3)CC2)c(N)n1", 67.2),
    ("Nc1ncc(N2CCN(c3cccc(Cl)n3)CC2)c(N)n1", 59.955),
    ("Nc1ncc(N2CCN(c3cncc(Br)c3)CC2)c(N)n1", 56.7),
    ("Nc1ncc(N2CCN(c3ccnc(Cl)c3)CC2)c(N)n1", 24.92),
    ("Nc1ncc(N2CCN(c3ccccc3C3=CCOCC3)CC2)c(N)n1", 12.205),
    ("Nc1ncc(C2CCN(c3cnc(C(F)(F)F)nc3)CC2)c(N)n1", 95.3),
    ("Nc1ncc(N2CCN(c3ccc(C4=CCOCC4)cc3)CC2)c(N)n1", 25.16),
    ("Nc1ncc(N2CCN(c3ccnc(C(F)(F)F)c3)CC2)c(N)n1", 8.02),
    ("Cc1ccc(-c2cc(N3CCN(c4cnc(N)nc4N)CC3)ccn2)cc1", 20.1),
    ("COc1ncc(-c2cccc(N3CCC(c4cnc(N)nc4N)CC3)c2)cn1", 40.64),
    ("Nc1ncc(N2CCN(c3ccc(F)nc3)CC2)c(N)n1", 60.75),
]

* * *

Listed here are molecules together with their documented Average DHFR selectivity (h/tg).
STUDY_SYSTEM: T. gondii DHFR (tgDHFR) (Toxoplasma gondii, UniProt Q07422)
Sequence (Q07422 whole entry): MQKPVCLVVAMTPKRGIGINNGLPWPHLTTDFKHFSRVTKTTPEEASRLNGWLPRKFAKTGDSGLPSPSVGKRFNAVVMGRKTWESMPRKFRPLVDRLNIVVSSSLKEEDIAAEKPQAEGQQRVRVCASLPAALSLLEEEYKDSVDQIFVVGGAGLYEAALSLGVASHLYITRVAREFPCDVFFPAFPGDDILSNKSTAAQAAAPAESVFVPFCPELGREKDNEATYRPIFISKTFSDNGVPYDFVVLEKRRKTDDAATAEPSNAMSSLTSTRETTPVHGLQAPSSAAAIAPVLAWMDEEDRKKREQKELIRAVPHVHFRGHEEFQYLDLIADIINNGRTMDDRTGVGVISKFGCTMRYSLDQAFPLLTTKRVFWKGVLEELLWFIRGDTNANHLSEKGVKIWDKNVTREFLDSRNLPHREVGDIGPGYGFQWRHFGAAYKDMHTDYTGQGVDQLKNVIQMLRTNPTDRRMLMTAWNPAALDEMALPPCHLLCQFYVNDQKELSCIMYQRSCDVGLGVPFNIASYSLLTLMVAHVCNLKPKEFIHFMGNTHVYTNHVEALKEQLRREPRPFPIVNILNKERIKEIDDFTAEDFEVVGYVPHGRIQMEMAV
ASSAY_PROCEDURE: biochemical
CONDITION_DETAILS: Table 16; hDHFR IC50/tgDHFR IC50
PROPERTY: Average DHFR selectivity (h/tg)

# SMILES, OBSERVED_VALUE
records = [
    ("Nc1ncc(C2CCN(c3ccc(C(F)(F)F)nc3)CC2)c(N)n1", 5.18),
    ("Nc1ncc(C2=CCN(c3cnc(C(F)(F)F)nc3)CC2)c(N)n1", 3.97),
    ("N#Cc1ncc(-c2cccc(N3CCN(c4cnc(N)nc4N)CC3)c2)cn1", 123.80),
    ("C[C@H]1CN(c2cnc(N)nc2N)CCN1c1cccc(C2=CCOCC2)c1", 17.89),
    ("COc1ncc(-c2cc(N3CCN(c4cnc(N)nc4N)CC3)ccn2)cn1", 23.00),
    ("Nc1ncc(N2CCN(c3ccnc(-c4ccccc4)c3)CC2)c(N)n1", 7.72),
    ("C[C@H]1CN(c2cnc(N)nc2N)CCN1c1cccc(C2CCOCC2)c1", 30.69),
    ("Nc1ncc(C2=CCN(c3cccc(C4=CCOCC4)c3)CC2)c(N)n1", 25.02),
    ("Nc1ncc(N2CCN(c3cccc(-c4cnc(O)nc4)n3)CC2)c(N)n1", 13.94),
]

* * *

Measured IC50 of individual entries
STUDY_SYSTEM: T. gondii DHFR (tgDHFR) (Toxoplasma gondii, UniProt Q07422)
ASSAY_PROCEDURE: biochemical

# MOLECULE, MEASUREMENT_UNITS, IC50
data = [
    ("Cc1nc(N)nc(N)c1N1CCN(c2ccccc2)CC1 [Compound 47]", "nM", 26.3),
    ("CCCc1nc(N)nc(N)c1N1CCN(c2ccc(OC)cn2)CC1 [Compound 60]", "nM", 20),
    ("CCc1nc(N)nc(N)c1N1CCN(c2cccc(OC)c2)CC1 [Compound 33]", "nM", 4.37),
    ("CCc1nc(N)nc(N)c1N1CCN(c2ccccc2)CC1 [Compound 28]", "nM", 5.75),
    ("CCc1nc(N)nc(N)c1N1CCN(c2ccc(F)cc2)CC1 [Compound 35]", "nM", 6.92),
    ("CCCc1nc(N)nc(N)c1N1CCN(c2ccc(F)cc2)CC1 [Compound 52]", "nM", 33.1),
    ("Cc1nc(N)nc(N)c1N1CCN(c2cccc(Cl)c2)CC1 [Compound 46]", "nM", 8.13),
]

* * *

STUDY_SYSTEM: hDHFR (Homo sapiens, UniProt P00374)
Sequence (P00374 1-187): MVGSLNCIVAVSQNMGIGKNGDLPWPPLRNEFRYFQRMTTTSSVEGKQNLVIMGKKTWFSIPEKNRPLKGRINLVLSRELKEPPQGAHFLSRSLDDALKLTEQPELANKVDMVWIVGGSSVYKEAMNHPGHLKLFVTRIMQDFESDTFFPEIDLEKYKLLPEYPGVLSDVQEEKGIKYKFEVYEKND
Assay type: biochemical
CONDITION_DETAILS: Table 17; pIC50 = -log10 IC50; at least three replicates; read-out: hDHFR pIC50-DHFR primary assay (converted)
PROPERTY: IC50 (nM)

# SMILES, STUDY_SYSTEM, PROPERTY, OBSERVED_VALUE
rows = [
    ("Nc1ncc(C2=CCN(c3cccc(C4=CCOCC4)c3)CC2)c(N)n1", "hDHFR (Homo sapiens, UniProt P00374)", "IC50", 320),
    ("Nc1ncc(N2CCN(c3cc(Cl)ccn3)CC2)c(N)n1", "hDHFR (Homo sapiens, UniProt P00374)", "IC50", 2190),
    ("Nc1ncc(N2CCN(c3cccc(-c4ccncn4)c3)CC2)c(N)n1", "hDHFR (Homo sapiens, UniProt P00374)", "IC50", 1660),
    ("Nc1ncc(N2CCN(c3ccc(Cl)cc3)CC2)c(N)n1", "hDHFR (Homo sapiens, UniProt P00374)", "IC50", 1020),
    ("Nc1ncc(N2CCN(c3ccc(C(F)(F)F)nc3)CC2)c(N)n1", "hDHFR (Homo sapiens, UniProt P00374)", "IC50", 2040),
]
